TARGET_UNDER_TEST: T1, human soluble urokinase plasminogen activator receptor (suPAR) (human, UniProt Q03405 23-303, limits assumed)
T1 construct: Column head says only 'human'; also called human suPAR; hsuPAR
RUN_DESCRIPTION: BLI (Octet) off-rate screen of scFv clones
koff for assorted binders
Express the result in s⁻¹ but write the number alone.

Some binders with recorded koff:
- suPAR_DB02_D11 (scFv, V domains shown, scFv clone from phage display) VH: QVQLVQSGAEVKKPGASVKVSCKASGFNIKDYYIHWVRQAPGQGLEWMGWIDPENGNTIYDQKFQGRVTMTRDTSTSTVYMELSSLRSEDTAVYYCARGYDVDWFVYWGQGTLVTVSS VL: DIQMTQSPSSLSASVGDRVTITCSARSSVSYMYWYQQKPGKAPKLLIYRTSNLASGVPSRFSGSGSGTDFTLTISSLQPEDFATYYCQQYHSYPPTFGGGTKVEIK: 0.00415
- suPAR_DB02_G12 (scFv, V domains shown, scFv clone from phage display) VH: QVQLVQSGAEVKKPGASVKVSCKASGFNIKDYYIHWVRQAPGQGLEWMGWIDPENGSTIYDQKFQGRVTMTRDTSTSTVYMELSSLRSEDTAVYYCARGYDVDWFVYWGQGTLVTVSS VL: DIQMTQSPSSLSASVGDRVTITCSASSSVSYMYWYQQKPGKAPKLLIYRTSSLQSGVPSRFSGSGSGTDFTLTISSLQPEDFATYYCQQYHSYPPTFGGGTKVEIK: 0.00371
- suPAR_DB02_C07 (scFv, V domains shown, scFv clone from phage display) VH: QVQLVQSGAEVKKPGASVKVSCKASGYTFTDSYIHWVRQAPGQGLEWMGWIDANNGDTNYAERFQGRVTMTRDTSTSTVYMELSSLRSEDTAVYYCARGYDVDWFVYWGQGTLVTVSS VL: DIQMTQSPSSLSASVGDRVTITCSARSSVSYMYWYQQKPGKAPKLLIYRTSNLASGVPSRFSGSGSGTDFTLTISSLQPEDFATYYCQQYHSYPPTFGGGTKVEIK: 0.0026
- suPAR_DB02_D05 (scFv, V domains shown, scFv clone from phage display) VH: QVQLVQSGAEVKKPGASVKVSCKASGYTFTSYYMHWVRQAPGQGLEWMGWIDHENGNTIYDQKFQGRVTMTRDTSTSTVYMELSSLRSEDTAVYYCARGYDVDWFVYWGQGTLVTVSS VL: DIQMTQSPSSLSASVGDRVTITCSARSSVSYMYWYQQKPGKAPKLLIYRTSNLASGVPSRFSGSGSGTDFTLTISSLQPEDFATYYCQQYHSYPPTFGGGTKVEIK: 0.00358

suPAR_DB02_C09 (scFv, V domains shown, scFv clone from phage display) VH: QVQLVQSGAEVKKPGASVKVSCKASGYTFTGYYMHWVRQAPGQGLEWVGLINPSDGYTTYAQKFQGRVTMTRDTSTSTVYMELSSLRSEDTAVYYCARGYDVDWFVYWGQGTLVTVSS VL: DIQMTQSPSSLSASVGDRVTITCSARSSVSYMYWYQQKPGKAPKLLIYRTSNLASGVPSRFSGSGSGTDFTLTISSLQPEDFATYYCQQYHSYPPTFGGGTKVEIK has a reported koff of 0.00387
